Test system: Caenorhabditis elegans
Assay: C. elegans L1 nematicidal dose response in 96-well plates, 5 day visual score (Example 2; same procedure for Example 7, Table 3)
Type: in vivo
Design: key: Dead: only stiff L1s (no movement); Dead (L4): worms are dead, but at a later larval stage; majority of worms are L1 (based on size) worms move when plate is tapped; majority of worms are L2 (based on size); majority of worms are L3 (based on size); majority of worms are L4 (based on size); AD: majority of worms are adult; #AD: 5 adult worms or less; B!: sterile (0-25 progeny); B: low broodsize (25-100 progeny); ˜B: moderate broodsize (100-250 progeny); <: reduced broodsize (250-500 progeny); OK: no effect (˜1000+ progeny)
Settings: Follow-up HTS run
quantity.measured: Follow-up HTS Run Visual Score

[[record]]
molecule = "Cc1cccc(C)c1N1CCN(c2nc(NC3CCCCCCCCCCC3)ns2)CC1 [compound 329]"
assay_value = "Dead"

[[record]]
molecule = "COCCN(CCOC)c1nc(N2CCN(c3c(C)cccc3C)CC2)ns1 [compound 221]"
assay_value = "5AD/B"

[[record]]
molecule = "CCCCCCCCCCCCCCCCCCN(C)c1nc(NC2CCCCCCCCCCC2)ns1 [compound 330]"
assay_value = "Dead"

[[record]]
molecule = "CC1(C)CC(O)CC(C)(CNc2nsc(N3CCN(c4ccc(F)cc4)CC3)n2)C1 (stereo not drawn) [compound 244]"
assay_value = "Dead"

[[record]]
molecule = "Fc1ccc(N2CCN(c3nc(NCCc4ccc(Oc5ccccc5)cc4)ns3)CC2)cc1 [compound 268]"
assay_value = "Dead"

[[record]]
molecule = "CCCCCCCCCCNc1nsc(N(C)Cc2ccccc2)n1 [compound 284]"
assay_value = "Dead"

